biological target: rat angiotensin 2 type 1 receptor (rat) (UniProt P25095); assay: cell-based or functional assay
Sequence (P25095 whole entry): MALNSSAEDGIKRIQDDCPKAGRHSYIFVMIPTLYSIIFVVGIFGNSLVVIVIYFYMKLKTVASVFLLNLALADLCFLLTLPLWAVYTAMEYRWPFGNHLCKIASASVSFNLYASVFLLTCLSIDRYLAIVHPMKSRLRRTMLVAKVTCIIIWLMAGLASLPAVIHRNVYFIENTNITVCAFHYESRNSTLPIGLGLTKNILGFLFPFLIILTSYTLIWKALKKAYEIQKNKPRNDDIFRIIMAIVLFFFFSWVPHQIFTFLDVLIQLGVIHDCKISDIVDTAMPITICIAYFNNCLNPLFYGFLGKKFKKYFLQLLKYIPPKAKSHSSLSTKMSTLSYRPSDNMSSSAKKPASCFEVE
property: IP One EC50 (nM)

Example cases with answers are listed next.
So what does the record say about IP One EC50 for RVYIHP (N-terminal Sar; C-terminal norvaline) [SEQ ID NO: 35 (Sar-Arg-Val-Tyr-Ile-His-Pro-NVA-OH)] ?
12

Do the same for RVYVHPI (N-terminal Sar; C-terminal acid) [SEQ ID NO: 11 (Sar-Arg-Val-Tyr-Val-His-Pro-Ile-OH)] please
3.5

Next binder: RVYVHPA (N-terminal Me2Gly; C-terminal acid) [SEQ ID NO: 31 (Me2G-Arg-Val-Tyr-Val-His-Pro-Ala-OH)]
13

P = RVYVHPI (N-terminal Sar; C-terminal amide) [SEQ ID NO: 12 (Sar-Arg-Val-Tyr-Val-His-Pro-Ile-NH2)]
Q = RVYKHPA (N-terminal Sar; C-terminal acid) [SEQ ID NO: 23 (Sar-Arg-Val-Tyr-Lys-His-Pro-Ala-OH)]
Sorting ascending by IP One EC50, which comes first: P or Q ? Give the chosen item's label as your response.
Q
(Q: 11 nM, P: 79 nM)

1 = VYIHPF (cyclic) [SEQ ID NO: 38 (Cyclo(Val-Tyr-Ile-His-Pro-Phe))]
2 = DRVYYHP (D-residue; C-terminal amide) [SEQ ID NO: 58 (D-Asp-Arg-Val-Tyr-Tyr-His-Pro-NH2)]
// compare measured IP One EC50, left 1 , right 2 , return larger Answer = label.
2
(2: 1400 nM, 1: 920 nM)
